System: U2OS
Assay: Multiplex assay against U2OS
Type: toxicity, cell-based
Conditions: human, 24 h, 1 µM, compound concentration 1 uM, replicate 2
parameterMeasured: Population Normal (%)
One number for each entry, in %.

Completed entries (count: 2):
>>> testvalue("Cn1nc(C(F)(F)F)cc1-c1cnc(N2CCc3cc(S(=O)(=O)Nc4c(F)cc(Cl)cc4F)cc(N4CCCC4=O)c32)nc1 [TP-020]")
94
>>> testvalue("COc1cc(N2CCN(C)CC2)ccc1Nc1ncc2c(n1)N(C)c1ccccc1C(=O)N2C")
93

Count: 8. Required value per item: Population Normal (%).
1. O=C(Nc1ccc(-n2nc(-c3cccnc3)cc2C(F)(F)F)cn1)c1ccc(-c2ccccc2)c(F)c1 [BI 2049]
2. Cc1cn(-c2cc(NC(=O)c3ccc(C)c(Nc4nccc(-c5cccnc5)n4)c3)cc(C(F)(F)F)c2)cn1 [NILOTINIB]
3. CCCn1c(=O)c2[nH]c(-c3cnn(Cc4cccc(C(F)(F)F)c4)c3)nc2n(CC)c1=O [GS 6201]
4. COc1ccc(-c2ccc3c(N4CCOCC4)nc(N4C[C@@H](C)O[C@@H](C)C4)nc3n2)cc1CO [Ku-0063794]
5. CN1CCN(C(=O)C(C)(C)c2ccc(C(=O)Nc3cn4cc(-c5cc(C(C)(C)C)cc(C(C)(C)C)c5)ccc4n3)cc2)CC1 [T3-CLK-N]
6. O=C1N/C(=N/c2ccccc2F)S/C1=C\c1ccc(C(=O)O)cc1
7. Cl.Oc1ccc2c3c1O[C@H]1c4[nH]c5c(c4C[C@@]4(O)[C@@H](C2)N(CC2CC2)CC[C@]314)C[C@@]1(O)[C@H]2Cc3ccc(O)c4c3[C@@]1(CCN2CC1CC1)[C@H]5O4
8. O=C(Nc1ccc(-c2ccnc(Nc3ccc(N4CCOCC4)cc3)n2)cc1)[C@@H]1CCCN1

Ans.
1. 92
2. 94
3. 95
4. 92
5. 91
6. 94
7. 95
8. 93

* * *

System: HEK-293T
Assay: Incucyte cell viability with HEK293T; also: filed as whole numbers so only -1 and 0 and 1 occur
Format: toxicity, cell-based
Conditions: human, 18 h, 10 µM, compound concentration 10 uM, replicate number 1, timepoint 18 hours
parameterMeasured: Growth Rate
One number for each entry.

>>> testvalue("C=CCn1c(=O)c2cnc(Nc3ccc(N4CCN(C)CC4)cc3)nc2n1-c1cccc(C(C)(C)O)n1")
0
>>> testvalue("O=C(Nc1ccc(-n2nc(-c3cccnc3)cc2C(F)(F)F)cn1)c1ccc(-c2ccccc2)c(F)c1")
0
>>> testvalue("FC(F)(F)c1cccc(-c2noc(-c3cc(-c4ccccc4)c(C(F)(F)F)s3)n2)c1")
0
>>> testvalue("COC1CCN(c2cccc(-c3cc(NC(C)=O)nc(-n4nc(C)cc4C)n3)n2)CC1")
0

Count: 7. Required value per item: Growth Rate.
1. Cc1nc(NC(=O)N2CCC[C@H]2C(N)=O)sc1-c1ccnc(C(C)(C)C(F)(F)F)c1
2. CCN(CC)S(=O)(=O)Nc1cccc(-c2ccc3c(NC(=O)C4CC4)n[nH]c3c2)c1
3. NC(=O)c1cccc(-c2cc(Nc3ccc(OC(F)(F)F)cc3)ncn2)c1
4. CCCCN(CCCC)C(=O)CN1C[C@H](c2cc(OC)c3c(c2)OCO3)[C@@H](C(=O)O)[C@@H]1CC(C)(C)CCC.Cc1ccc(S(=O)(=O)O)cc1
5. CNC(=O)c1ccc(Nc2nc(OC3CCCC3)c3c(-c4ccc5nc(C)oc5c4)c[nH]c3n2)c(OC)c1
6. O=C1NC(=O)C(c2cnc3ccccn23)=C1c1cn2c3c(cc(F)cc13)CN(C(=O)N1CCCCC1)CC2
7. COc1ccc(-c2ccc3c(N4CCOCC4)nc(N4C[C@@H](C)O[C@@H](C)C4)nc3n2)cc1CO

Ans.
1
0
0
1
0
1
0
